Test: Reactivity of styrene oxide and halogenated styrene oxides to cysteamine
Format: physicochemical
Settings: oxide 1.0 μM, cysteamine 100 μM, phosphate buffer, 37 °C
Item-by-item account of Rate constant for production of the cysteamine adducts
Reply numerically in min⁻¹, unit not repeated.

Molecule | Measured result
Brc1ccc(C2CO2)cc1 (stereo not shown) [4-bromostyrene oxide] | 29.3
Clc1ccc(C2CO2)cc1 (stereo not shown) [4-chlorostyrene oxide] | 16.1
c1ccc(C2CO2)cc1 (stereo not shown) [styrene oxide] | 13.4

From here, focus on the item given below.
[ask] Please look up its Rate constant for production of the cysteamine adducts: Fc1ccc(C2CO2)cc1 (stereo not shown) [4-fluorostyrene oxide]
[reply] 15.7
